- Test system: L1210 leukemia ip in BDF1 mice, survival T/C
- experiment: NCI In Vivo Anticancer Drug Screen. Data for tumor model L1210 Leukemia (intraperitoneal) in B6D2F1 (BDF1) mice
- setupConditions: endpoint: mean survival time; dose: 100.0 mg/kg/injection; schedule: Q01DX009 (ip); vehicle: Klucel (hydroxypropylcellulose) (HPC); higher = longer survival
Inconclusive results and toxic doses are left out.
measuredQuantity: T/C

| compound | testedSystem | T/C |
| --- | --- | --- |
| CCOC(=O)c1ccc(NC(=O)Oc2ccc(SC)cc2)cc1 | L1210 leukemia ip in BDF1 mice, survival T/C | 90 % of control |

// output T/C; input "CCCCCCCCCCCCCCCC(=O)NNC(C)C" ; system L1210 leukemia ip in BDF1 mice, survival T/C
86 % of control

// output T/C; input "CC(=O)Nc1c(C)cc(C)cc1C" ; system L1210 leukemia ip in BDF1 mice, survival T/C
106 % of control

// output T/C; input "CCCCOP(=S)(Cc1ccccc1)OCCCC" ; system L1210 leukemia ip in BDF1 mice, survival T/C
104 % of control

// output T/C; input "ClCc1nc(-c2ccco2)no1" ; system L1210 leukemia ip in BDF1 mice, survival T/C
95 % of control

// output T/C; input "N=C(N)c1ccc(OCCCCOc2ccc(N)cc2Cl)cc1" ; system L1210 leukemia ip in BDF1 mice, survival T/C
97 % of control

// output T/C; input "Cc1ccc(NC(=O)c2cccc(C(=O)Nc3ccc(C)c(Cl)c3)c2)cc1Cl" ; system L1210 leukemia ip in BDF1 mice, survival T/C
91 % of control

// output T/C; input COc1ccc(C2CCC(=O)CC2(O)C(=O)O)cc1 (stereo unspecified) ; system L1210 leukemia ip in BDF1 mice, survival T/C
91 % of control

----------
- Test system: L1210 leukemia ip in BDF1 mice, survival T/C
- experiment: NCI In Vivo Anticancer Drug Screen. Data for tumor model L1210 Leukemia (intraperitoneal) in B6D2F1 (BDF1) mice
- setupConditions: endpoint: mean survival time; dose: 200.0 mg/kg/injection; schedule: Q04DX003 (ip); vehicle: Klucel (hydroxypropylcellulose) (HPC); higher = longer survival
Toxic doses and inconclusive results are not listed.
Below: a set of entries, each annotated with reported T/C.

| querySmiles | measuredQuantity | valueReported |
| --- | --- | --- |
| NC(=S)N1CCCC1 | T/C | 96 % of control |
| Nc1n[nH]c(C(=O)O)n1 | T/C | 93 % of control |
| COc1ccc(CSC(=S)NNc2ccccc2)cc1 | T/C | 93 % of control |
| Cc1ccccc1N(C)C(=S)c1ccc(Cl)cc1 | T/C | 94 % of control |
| O=C(NC(=S)Nc1ccccc1C(F)(F)F)c1ccccc1F | T/C | 90 % of control |
| COc1cc(NC(=O)Nc2cc(OC)c(OC)c(OC)c2)cc(OC)c1OC | T/C | 98 % of control |

Then there is this compound:
Dear colleague, please send me the reported T/C for "Nc1nc2[nH]c(=O)cnc2c(=O)[nH]1" when you can.
102 % of control

----------
- System: L1210 leukemia ip in BDF1 mice, survival T/C
- experiment: NCI In Vivo Anticancer Drug Screen. Data for tumor model L1210 Leukemia (intraperitoneal) in B6D2F1 (BDF1) mice
- setupConditions: endpoint: mean survival time; dose: 200.0 mg/kg/injection; schedule: Q04DX002 (ip); vehicle: Klucel (hydroxypropylcellulose) (HPC); higher = longer survival
Toxic doses and inconclusive results are not listed.
Below: a set of entries, each annotated with reported T/C.

Field: example entries. Status: answers known.
| querySmiles | T/C |
| --- | --- |
| CCOC(=O)c1ccc(N=[N+]([O-])c2ccc(C(=O)OCC)cc2)cc1 | 96 % of control |
| N#CCCn1c(=O)n(CCC#N)c(=O)n(CCC#N)c1=O | 97 % of control |
| O=C(Nc1cccc([N+](=O)[O-])c1)c1ccc(C(=O)Nc2cccc([N+](=O)[O-])c2)cc1 | 91 % of control |
| O=C(NCCc1ccccc1)c1ccc(Cl)cc1 | 92 % of control |

Dear colleague, please send me the reported T/C for "Cc1ccc2c(=O)n(C)c(=O)n(C)c2n1" when you can.
106 % of control

Dear colleague, please send me the reported T/C for "O=C1/C(=C\c2ccc(OCc3ccccc3)c(OCc3ccccc3)c2)N2CCC1CC2" when you can.
115 % of control

Dear colleague, please send me the reported T/C for "CCCCS(=O)(=O)N1CCC(C)CC1" when you can.
91 % of control

Dear colleague, please send me the reported T/C for "NC(N)=NN(CCN(N=O)N=C(N)N)N=O" when you can.
104 % of control

Dear colleague, please send me the reported T/C for "O=C1CN=C(c2ccccc2)c2cc(Cl)ccc2N1" when you can.
93 % of control

Dear colleague, please send me the reported T/C for "C/C([O-])=C(/c1nc(-c2ccc([N+](=O)[O-])o2)no1)[n+]1cc(C)ccc1C" when you can.
91 % of control

Dear colleague, please send me the reported T/C for "O=C(O)c1cc(Cl)cc(F)c1Cl" when you can.
105 % of control

----------
- Tested on: L1210 leukemia ip in BDF1 mice, survival T/C
- experiment: NCI In Vivo Anticancer Drug Screen. Data for tumor model L1210 Leukemia (intraperitoneal) in B6D2F1 (BDF1) mice
- setupConditions: endpoint: mean survival time; dose: 100.0 mg/kg/injection; schedule: Q01DX001 (ip); vehicle: saline; higher = longer survival
Inconclusive results and toxic doses are left out.
measuredQuantity: T/C

| compound | T/C |
| --- | --- |
| CCOC(=O)C1=C(NNC(N)=S)C2CCN1CC2 | 105 % of control |
| Cc1nc(N)c2c(ncn2C2OC(CO)C(O)C2O)n1 (centres undefined) | 100 % of control |
| C1CC[N+]2(CC1)CCC2 | 107 % of control |

Dear colleague, please send me the reported T/C for CCOC(=O)N1C(=O)NC(=O)C1c1ccc(Cl)cc1 (centres undefined) when you can.
112 % of control

----------
- System: L1210 leukemia ip in BDF1 mice, survival T/C
- experiment: NCI In Vivo Anticancer Drug Screen. Data for tumor model L1210 Leukemia (intraperitoneal) in B6D2F1 (BDF1) mice
- setupConditions: endpoint: mean survival time; dose: 25.0 mg/kg/injection; schedule: Q04DX003 (ip); vehicle: saline with Tween-80; higher = longer survival
Toxic doses and inconclusive results are not listed.
measuredQuantity: T/C

| querySmiles | testedSystem | T/C |
| --- | --- | --- |
| C[N+](C)(Cc1ccc(F)cc1)C1c2ccccc2-c2ccccc21 | L1210 leukemia ip in BDF1 mice, survival T/C | 89 % of control |
| C/C(=N\NC(N)=S)c1cccs1 | L1210 leukemia ip in BDF1 mice, survival T/C | 103 % of control |
| CNC(=O)Nc1nnnc2ccccc12 | L1210 leukemia ip in BDF1 mice, survival T/C | 92 % of control |

Then there is this compound:
Dear colleague, please send me the reported T/C for "CCCCCCCCCCCCSC(=N)N" when you can.
100 % of control

----------
- Test system: L1210 leukemia ip in BDF1 mice, survival T/C
- experiment: NCI In Vivo Anticancer Drug Screen. Data for tumor model L1210 Leukemia (intraperitoneal) in B6D2F1 (BDF1) mice
- setupConditions: endpoint: mean survival time; dose: 400.0 mg/kg/injection; schedule: Q01DX001 (ip); vehicle: carboxymethylcellulose (CMC); higher = longer survival
Toxic doses and inconclusive results are not listed.
Below: a set of entries, each annotated with reported T/C.

| compound | testedSystem | valueReported |
| --- | --- | --- |
| O=C1c2cc([N+](=O)[O-])ccc2-c2cc(Cl)c(NC(=O)C(Cl)Cl)cc21 | L1210 leukemia ip in BDF1 mice, survival T/C | 104 % of control |

Dear colleague, please send me the reported T/C for C=C(NC(=O)C(=C)NC(=O)c1csc(C2=NC3c4csc(n4)C4NC(=O)c5csc(n5)C(C(C)(O)C(C)O)NC(=O)C5CSC(=N5)/C(=C/C)NC(=O)C(C(C)O)NC(=O)c5csc(n5)C3(CC2)NC(=O)C(C)NC(=O)C(=C)NC(=O)C(C)NC(=O)C(C(C)CC)NC2C=Cc3c(C(C)O)cc(nc3C2O)C(=O)OC4C)n1)C(N)=O (stereo unspecified) when you can.
112 % of control

Dear colleague, please send me the reported T/C for CCCCC(Cl)(CCCC)C(C)Sc1ccc([N+](=O)[O-])cc1 (stereo unspecified) when you can.
100 % of control

Dear colleague, please send me the reported T/C for "CCOC(=O)c1ccc(Nc2nc3ccccc3o2)cc1" when you can.
93 % of control

Values compiled from PubChem BioAssay AID248.
